# target-system: T1, orthogonal hCD122 receptor (hoRb), hCD122 with H133D and Y134F (human, UniProt P14784 27-550)
# T1 sequence: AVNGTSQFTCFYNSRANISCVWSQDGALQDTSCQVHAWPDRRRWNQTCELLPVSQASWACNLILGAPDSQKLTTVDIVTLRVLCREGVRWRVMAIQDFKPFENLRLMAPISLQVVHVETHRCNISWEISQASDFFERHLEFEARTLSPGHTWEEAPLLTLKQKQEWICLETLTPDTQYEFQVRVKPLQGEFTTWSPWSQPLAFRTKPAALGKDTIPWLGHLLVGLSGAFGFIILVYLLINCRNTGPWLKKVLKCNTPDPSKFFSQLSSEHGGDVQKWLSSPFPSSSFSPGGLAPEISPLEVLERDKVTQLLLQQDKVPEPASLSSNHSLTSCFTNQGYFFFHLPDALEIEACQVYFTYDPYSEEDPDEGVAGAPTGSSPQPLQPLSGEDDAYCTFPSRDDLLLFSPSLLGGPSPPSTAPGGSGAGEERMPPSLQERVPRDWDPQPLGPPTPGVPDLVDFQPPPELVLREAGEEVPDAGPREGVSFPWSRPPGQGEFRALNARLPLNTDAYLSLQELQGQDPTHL
# test-protocol: cell-based or functional assay
binders and their reported 3F8 Ortho Proliferation Signal 1:10
# number only, unit cts/min dropped from output

Some solved entries appear below for comparison.
binder	numeric-value
ΔG27, SQVLKA (ligand) APTSSSTKKTQLQLSQLLVLLKAILNINNYKNPKLTRMLTFKFYMPKKATELKHLQCLEEELKPLEEVLNLAQSKNFHLRPRDLISNINVIVLELKGSETTFMCEYADETATIVEFLNRWITFCQSIISTLT	21900
SQVLYA, E116G (ligand) APTSSSTKKTQLQLSQLLVLLYAILNGINNYKNPKLTRMLTFKFYMPKKATELKHLQCLEEELKPLEEVLNLAQSKNFHLRPRDLISNINVIVLELKGSETTFMCEYADETATIVEFLNRWITFCQSIISTLT	8030
SNVLKA (ligand) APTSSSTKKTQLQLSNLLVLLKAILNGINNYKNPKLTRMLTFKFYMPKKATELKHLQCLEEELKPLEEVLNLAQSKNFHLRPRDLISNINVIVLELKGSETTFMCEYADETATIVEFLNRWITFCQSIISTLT	32700

Field: next binder
// sample T3Q, SQVLKA (ligand) APQSSSTKKTQLQLSQLLVLLKAILNGINNYKNPKLTRMLTFKFYMPKKATELKHLQCLEEELKPLEEVLNLAQSKNFHLRPRDLISNINVIVLELKGSETTFMCEYADETATIVEFLNRWITFCQSIISTLT , its 3F8 Ortho Proliferation Signal 1:10 was 32200
